Target: FL AKT1 (Homo sapiens)
Construct: Full-length human AKT1 gene was amplified by PCR; His tag (from vector pFastBacHTb; own knowledge that this vector adds an N-terminal 6xHis and TEV site) (N); made in house; host or cells: baculovirus; virus produced in Sf9, protein expressed in T. ni insect cells
Sequence (P31749 whole entry): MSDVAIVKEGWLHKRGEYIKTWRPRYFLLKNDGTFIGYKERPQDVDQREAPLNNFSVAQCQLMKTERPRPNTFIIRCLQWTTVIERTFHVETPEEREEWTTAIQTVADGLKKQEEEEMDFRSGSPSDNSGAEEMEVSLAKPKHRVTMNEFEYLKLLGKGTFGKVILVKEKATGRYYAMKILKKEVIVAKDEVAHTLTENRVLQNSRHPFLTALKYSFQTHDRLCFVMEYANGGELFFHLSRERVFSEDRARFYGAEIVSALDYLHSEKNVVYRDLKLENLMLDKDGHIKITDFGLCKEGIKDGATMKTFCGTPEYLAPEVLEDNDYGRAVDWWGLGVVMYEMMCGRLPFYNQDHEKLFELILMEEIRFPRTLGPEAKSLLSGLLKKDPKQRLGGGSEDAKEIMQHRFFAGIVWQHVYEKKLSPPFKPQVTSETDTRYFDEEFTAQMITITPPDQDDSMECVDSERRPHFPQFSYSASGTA
Test: Full-length AKT enzyme assay (substrate phosphorylation, SPA)
Format: biochemical
Settings: 4 uM ATP
METRIC: IC50 (µM)
Your answer is read as µM, so omit the unit and give the number.

Observed IC50, FL AKT1 (Homo sapiens), CCn1c(-c2nonc2N)nc2c(C#CC(C)(C)O)ncc(OCCCN3CCCC3)c21 [Example 2] : 0.002

Observed IC50, FL AKT1 (Homo sapiens), CCn1c(-c2nonc2N)nc2c(C#CC(C)(C)O)ncc(OCCCN3CCCCC3)c21 [Example 1] : 0.003
